AC50: recorded values
Target: OPRM (Homo sapiens)
Sequence (P35372 whole entry): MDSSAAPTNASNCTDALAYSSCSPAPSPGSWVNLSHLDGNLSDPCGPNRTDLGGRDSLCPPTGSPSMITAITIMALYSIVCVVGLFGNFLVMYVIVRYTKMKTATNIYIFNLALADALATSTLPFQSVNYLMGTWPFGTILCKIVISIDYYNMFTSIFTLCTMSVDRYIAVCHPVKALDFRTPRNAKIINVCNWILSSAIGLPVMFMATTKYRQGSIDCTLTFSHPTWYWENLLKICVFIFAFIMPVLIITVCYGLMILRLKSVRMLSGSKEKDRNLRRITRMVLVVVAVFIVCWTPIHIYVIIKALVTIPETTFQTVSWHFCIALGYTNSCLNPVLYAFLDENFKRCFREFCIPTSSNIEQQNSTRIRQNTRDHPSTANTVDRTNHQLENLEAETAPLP
Experiment: cell-based
Assay type: cell-based
RECORDED_ENDPOINT: AC50 (nM)

* Cc1cccc(OCC(=O)NCC2(N3CCN(C)CC3)CCCCC2)c1C | 1830
* O=C(Nc1ccccc1C(F)(F)F)N1CCC(CN2CCc3ccccc3C2)CC1 | 920
* O=C(NCCCc1nc2ccccc2n1Cc1ccccc1Cl)C1CCCCC1 | 1640
* O=C(NCCCc1nc2ccccc2n1Cc1c(F)cccc1Cl)C1CCCCC1 | 520
* CN1CCN(C2(CNC(=O)c3ccc(C(C)(C)C)cc3)CCCCC2)CC1 | 460
* O=C(NCCN1CCC(n2c(=O)[nH]c3ccccc32)CC1)c1cc2cc(F)ccc2[nH]1 | 580
* Cc1cn(CCN2CCN(c3ccccc3-c3cc(C#N)cc(C(=O)NCCCN4CCCC4)c3)CC2)c2ccccc12 | 130
* COc1ccccc1N1CCN(CC[C@@](C)(C(=O)C2CCCCC2)c2ccccc2)CC1 | 180
* CCCC1=Nc2cc(C(=O)N3CCC(C)CC3)ccc2Sc2ccc(C)cc21 | 920
* O=C(CC(c1ccccc1)c1ccccc1)N1CCN(C(c2ccccc2)c2ccccc2)CC1 | 1830
* CCn1c(=N)n(CCOc2ccc(Br)cc2)c2ccccc21 | 2060
